# collection of IC50 values tested on nNOS (Rattus norvegicus, UniProt P29476)
MEASUREMENT_LABEL: IC50 (µM)

IC50 for Cc1cc(N)nc(CC2CNCC2OCCNC2CC2c2cccc(F)c2)c1 (stereo not drawn) is 9

1. Cc1cc(N)nc(CC2CNCC2OCCNCC(F)c2cccc(F)c2)c1 (stereo not drawn)
2. Cc1cc(N)nc(CC2CNCC2OCCNCC(F)(F)c2cccc(F)c2)c1 (stereo not drawn)
Return label of the item with the larger IC50. Candidates: 1 , 2 . Label of pick, please.
2
(2: 19 µM, 1: 10 µM)

====

- SUBJECT_OF_TEST: bovine eNOS (Bos taurus)
- ASSAY_SUMMARY: NOS hemoglobin capture assay, purified recombinant enzyme (eNOS)
pKi: −log10 of the molar value.
MEASUREMENT_LABEL: pKi

For orientation, consider the following solved cases.
// pKi lookup, compound = Cc1cc(N)nc(C[C@H]2CNC[C@H]2OCCNCC(F)(F)C2CCCCN2)c1 (some centres unmarked) [Compound 2f] , result: 4.19

Please fill in: pKi reported for CC1CC(N)=NC(C[C@@H]2CNC[C@@H]2OCCNCC(F)(F)c2ccccc2)C1 (some centres unmarked) [Compound 2e] = 3.89

Given item Cc1cc(N)nc(C[C@@H]2CNC[C@@H]2OCCNCC(F)(F)c2cccc(F)c2)c1 [Compound 2db] , the value recorded as its pKi is 3.85

A. Cc1cc(N)nc(CC2CNCC2OCCNC2CC2c2cccc(F)c2)c1 (centres unmarked) [Compound 2b]
B. Cc1cc(N)nc(C[C@H]2CNC[C@H]2OCCNCC(F)(F)c2cccc(F)c2)c1 [Compound 2da]
When their pKi values are compared, which is larger, A or B ? Which one? Tell me its label.
A
(A: 4.17, B: 3.96)

====

- SUBJECT_OF_TEST: UniProt:P29476
- ASSAY_SUMMARY: NOS hemoglobin capture assay, purified recombinant enzyme (nNOS)
MEASUREMENT_LABEL: IC50 (nM)
Supply the numeric figure in nM, leaving out any unit text.

# IC50 measured on UniProt:P29476 for item Cc1cc(N)nc(CC2CNCC2OCCNC2CC2c2cccc(F)c2)c1 (stereo not shown) [Compound 2b] = 400

====

- SUBJECT_OF_TEST: UniProt P29473
- ASSAY_SUMMARY: NOS hemoglobin capture assay, purified recombinant enzyme (eNOS)
- MEASUREMENT_CONTEXT: read-out: Ki eNOS; Table 4; Ki calculated from measured IC50; 10 μM L-arginine
MEASUREMENT_LABEL: Ki (µM)
Numbers only here, please. The scale is µM.

Summary: Cc1cc(N)nc(C[C@@H]2CNC[C@@H]2OCCNCC(F)(F)c2ccc(F)cc2)c1 , UniProt P29473, Ki = 31

====

- SUBJECT_OF_TEST: rat nNOS (Rattus norvegicus, UniProt P29476)
- ASSAY_SUMMARY: NOS hemoglobin capture assay, purified recombinant enzyme (nNOS)
pKi: −log10 of the molar value.
MEASUREMENT_LABEL: pKi

Sample records with pKi:
Please fill in: pKi reported for Cc1cc(N)nc(C[C@@H]2CNC[C@@H]2OCCNCC(F)(F)c2cccc(F)c2)c1 = 7.44

So, Cc1cc(N)nc(CC2CNCC2OCCNC2CC2c2cccc(F)c2)c1 (stereo not drawn) ? Its pKi was 7.34

Briefly, pKi measured for CC1CC(N)=NC(C[C@@H]2CNC[C@@H]2OCCNCC(F)(F)c2ccccc2)C1 (stereo partly drawn) : 6.77

// pKi value for Cc1cc(N)nc(C[C@@H]2CNC[C@@H]2OCCNCC(F)(F)c2ccccc2)c1 : 7.07

P. Cc1cc(N)nc(C[C@H]2CNC[C@H]2OCCNCC(F)(F)c2cccc(F)c2)c1
Q. Cc1cc(N)nc(C[C@H]2CNC[C@H]2OCCNCC(F)(F)C2CCCCN2)c1 (stereo partly drawn)
// select label with min value of measured pKi from [ P , Q ] Kindly give the label for the entry you pick.
Q

====

- SUBJECT_OF_TEST: rat nNOS (Rattus norvegicus)
- ASSAY_SUMMARY: NOS hemoglobin capture assay, purified recombinant enzyme (nNOS)
- MEASUREMENT_CONTEXT: read-out: Ki nNOS; Table 2; Ki calculated from measured IC50; 10 μM L-arginine
MEASUREMENT_LABEL: Ki (nM)
Respond numerically; units are nM and should not be typed.

Reported Ki for Cc1cc(N)nc(CC2CNCC2OCCNCC(F)(F)c2cccc(F)c2)c1 (stereo not shown) was 80

====

- SUBJECT_OF_TEST: murine macrophage iNOS (Mus musculus, UniProt P29477)
- ASSAY_SUMMARY: NOS hemoglobin capture assay, purified recombinant enzyme (iNOS)
pKi: −log10 of the molar value.
MEASUREMENT_LABEL: pKi

Here's what some known entries look like.
Param item: Cc1cc(N)nc(C[C@@H]2CNC[C@@H]2OCCNCC(F)(F)c2cccc(F)c2)c1 ; param system: murine macrophage iNOS (Mus musculus, UniProt P29477); output pKi: 4.29

Item: Cc1cc(N)nc(C[C@@H]2CNC[C@@H]2OCCNCC(F)(F)c2ccccc2)c1 | System: murine macrophage iNOS (Mus musculus, UniProt P29477) | pKi: 4.07

a. Cc1cc(N)nc(CC2CNCC2OCCNC2CC2c2cccc(F)c2)c1 (stereo not drawn)
b. CC1CC(N)=NC(C[C@@H]2CNC[C@@H]2OCCNCC(F)(F)c2ccccc2)C1 (stereo partly drawn)
c. Cc1cc(N)nc(C[C@H]2CNC[C@H]2OCCNCC(F)(F)C2CCCCN2)c1 (stereo partly drawn)
d. Cc1cc(N)nc(C[C@H]2CNC[C@H]2OCCNCC(F)(F)c2cccc(F)c2)c1
In this exercise, place the 4 molecules in ascending sequence of their recorded pKi. Kindly provide the labels arranged according to the requested ordering.
c, d, b, a
(c: 3.35, d: 3.89, b: 4.59, a: 4.96)

====

- SUBJECT_OF_TEST: rat nNOS (Rattus norvegicus)
- ASSAY_SUMMARY: NOS hemoglobin capture assay, purified recombinant enzyme (nNOS)
- MEASUREMENT_CONTEXT: Table 3; purified enzyme assay (nNOS)
MEASUREMENT_LABEL: IC50 (nM)
Record the value in nM, omitting the unit from your answer.

# IC50 (compound: Cc1cc(N)nc(CC2CNCC2OCCNCC(F)(F)c2cccc(F)c2)c1 (stereo not shown) [Compound 2d] ) is 700

====

- SUBJECT_OF_TEST: rat nNOS (Rattus norvegicus, UniProt P29476)
- ASSAY_SUMMARY: NOS hemoglobin capture assay, purified recombinant enzyme (nNOS)
- MEASUREMENT_CONTEXT: read-out: Ki nNOS; Table 4; Ki calculated from measured IC50; 10 μM L-arginine
MEASUREMENT_LABEL: Ki (nM)

A. Cc1cc(N)nc(C[C@@H]2CNC[C@@H]2OCCNCC(F)(F)c2ccc(F)cc2)c1
B. Cc1cc(N)nc(CC2CNCC2OCCNCC(F)(F)c2cccc(F)c2)c1 (centres unmarked)
Quick one: lower Ki, A or B ? Reply with the label of the item you choose.
B
